# TARGET_OF_ASSAY: adenosine A2b receptor (Homo sapiens)
# Sequence (P29275 whole entry): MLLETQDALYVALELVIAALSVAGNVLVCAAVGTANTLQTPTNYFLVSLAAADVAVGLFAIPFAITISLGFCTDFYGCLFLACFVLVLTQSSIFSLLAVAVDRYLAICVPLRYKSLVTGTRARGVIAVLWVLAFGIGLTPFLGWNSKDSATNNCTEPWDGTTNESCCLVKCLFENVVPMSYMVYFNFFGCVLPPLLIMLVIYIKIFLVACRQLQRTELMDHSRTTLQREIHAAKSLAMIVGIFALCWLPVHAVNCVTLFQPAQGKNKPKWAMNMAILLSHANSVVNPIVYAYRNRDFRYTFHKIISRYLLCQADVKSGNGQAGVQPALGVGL
# PROCEDURE_DETAILS: Indirect determination of adenosine agonism by gene expression (luciferase reporter), A2b cells
# STATED_CONDITIONS: CHO cells stably transfected with A2b receptor cDNA; 50% of maximum stimulation
# Text: Cells of the CHO (Chinese Hamster Ovary) permanent cell line are transfected stably with the cDNA for the adenosine receptor subtypes A1, A2a and A2b. The adenosine A1 receptors are coupled to the adenylate cyclase by way of Gi proteins, while the adenosine A2a and A2b receptors are coupled by way of Gs proteins. In correspondence with this, the formation of cAMP in the cell is inhibited or stimulated, respectively. […]
PROPERTY_NAME: EC50
# output: number + unit

>>> result("CNC(=O)c1cc(CSc2nc(N)c(C#N)c(-c3ccc(OC4CCOC4)cc3)c2C#N)ccn1 (stereo not shown)")
"234 nM"
>>> result("N#Cc1c(N)nc(SCc2ccccn2)c(C#N)c1-c1ccc(O[C@H]2COC[C@@H]2O)cc1 (single isomer, unassigned)")
"720 nM"
>>> result("N#Cc1c(N)nc(SCc2cccnc2)c(C#N)c1-c1ccc(O[C@H]2CCCC[C@@H]2O)cc1")
"2.4 nM"

State recorded EC50 for all listed compounds.
1. N#Cc1c(N)nc(SCc2csc(C(N)=O)n2)c(C#N)c1-c1ccc(OC2CCOC2)cc1 (racemic)
2. N#Cc1c(N)nc(SCc2csc(Nc3ccc(F)cc3)n2)c(C#N)c1-c1ccc(O[C@H]2COC[C@@H]2O)cc1 (single isomer, unassigned)

Key:
1: 556 nM; 2: 43 nM

State recorded EC50 for all listed compounds.
1. CNC(=O)c1nc(CSc2nc(N)c(C#N)c(-c3ccc(OC4CCOC4)cc3)c2C#N)cs1 (racemic)
2. N#Cc1c(N)nc(SCc2c[nH]cn2)c(C#N)c1-c1ccc(O[C@H]2CCCC[C@@H]2O)cc1

Key:
177 nM
4.3 nM
